The values you see were collected from paper PMC12820563.

- system: MBP-FoxP1dN (Mus musculus, UniProt P58462 326-579)
- Sequence: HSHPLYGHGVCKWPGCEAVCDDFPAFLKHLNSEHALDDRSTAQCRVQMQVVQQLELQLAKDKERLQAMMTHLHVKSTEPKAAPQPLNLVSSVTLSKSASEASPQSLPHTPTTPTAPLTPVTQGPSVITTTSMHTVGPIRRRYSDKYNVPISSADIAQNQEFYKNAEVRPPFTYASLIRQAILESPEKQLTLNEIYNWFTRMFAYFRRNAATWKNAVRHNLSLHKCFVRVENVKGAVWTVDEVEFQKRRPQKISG
- assay name: PD-seq (MBP pull-down with sequencing); 20 mM Tris-HCl pH 7.5, 100 mM NaCl, 1.5 mM MgCl2, 0.4 uM protein, 0.1 uM dsDNA library, 30 min, room temperature, amylose pull-down; high values mean tight binding
- condition details: protein: recombinant; tags: His6-MBP; chain copies: 2; dsDNA, one strand shown
In all, about 16,000 sequences were measured (“rpm ratio (pull-down/input)”: median about 0.94, highest 2% from about 1.7 on). Only a selection was taken, and the highest values are over-represented in it overall.
reported property: binding signal

Task item: Given `GATGATTGTTCTCCCAGCTGATGAATTATATTTTTCGAGTAAACAAATTTTCCTAATCTTTCTGTTCAAGCGCCATCTAC` , state its recorded binding signal.
Reply: 1.61 RPM ratio (pull-down/input)

Task item: Note, next up: `GATGATTGTTCTCCCAGCTGATGAATTGCAGATGTCGAGTAAACAAATTTTCCTAATCTTTCTGTTCAAGCGCCATCTAC`
Reply: 1.27 RPM ratio (pull-down/input)

Task item: Note, next up: `GATGATTGTTCTCCCAGCTGATGAATTTTATATTTCGAGTAAACAAATTTTCCTAATCTTTCTGTTCAAGCGCCATCTAC`
Reply: 1.07 RPM ratio (pull-down/input)

Task item: Note, next up: `GATGATTGTTCTCCCAGCTGATGAATTGGTCAGGTCGAGTAAACAAATTTTCCTAATCTTTCTGTTCAAGCGCCATCTAC`
Reply: 0.794 RPM ratio (pull-down/input)

Task item: Note, next up: `GATGATTGTTCTCCCAGCTGATGAATTGCGGCAGTCGAGTAAACAAATTTTCCTAATCTTTCTGTTCAAGCGCCATCTAC`
Reply: 0.919 RPM ratio (pull-down/input)

Task item: Note, next up: `GATGATTGTTCTCCCAGCTGATGAATTCCCTTTCTCGAGTAAACAAATTTTCCTAATCTTTCTGTTCAAGCGCCATCTAC`
Reply: 0.783 RPM ratio (pull-down/input)

Task item: Note, next up: `GATGATTGTTCTCCCAGCTGATGAATTATATATTTCGAGTAAACAAATTTTCCTAATCTTTCTGTTCAAGCGCCATCTAC`
Reply: 1.06 RPM ratio (pull-down/input)

---

- system: MBP-FoxP1dN (Mus musculus, UniProt P58462 326-579)
- Sequence: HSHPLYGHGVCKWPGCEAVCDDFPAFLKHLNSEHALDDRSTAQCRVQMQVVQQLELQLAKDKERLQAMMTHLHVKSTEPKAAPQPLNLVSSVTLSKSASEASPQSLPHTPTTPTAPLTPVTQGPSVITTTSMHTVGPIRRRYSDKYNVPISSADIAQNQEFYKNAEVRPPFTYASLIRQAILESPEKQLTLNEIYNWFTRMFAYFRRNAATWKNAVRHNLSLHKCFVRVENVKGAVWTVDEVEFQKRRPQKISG
- assay name: PD-seq (MBP pull-down with sequencing); 20 mM Tris-HCl pH 7.5, 100 mM NaCl, 1.5 mM MgCl2, 0.4 uM protein, 0.1 uM dsDNA library, 30 min, room temperature, amylose pull-down; high values mean tight binding
- condition details: protein: recombinant; tags: His6-MBP; chain copies: 2; dsDNA, one strand shown
In all, about 16,000 sequences were measured (“rpm ratio (pull-down/input)”: median about 0.94, highest 2% from about 1.7 on). The list comes from a sample in which the highest values are over-represented; it also holds close analogues and randomly drawn sequences.
Answer each item with its documented binding signal.

Task item: Given `GATGATTGTTCTCCCAGCTGATGAATTTCCTGCGTCGAGTAAACAAATTTTCCTAATCTTTCTGTTCAAGCGCCATCTAC` , state its recorded binding signal.
Reply: 0.938 RPM ratio (pull-down/input)

Task item: Note, next up: `GATGATTGTTCTCCCAGCTGATGAATTGACTAAGTCGAGTAAACAAATTTTCCTAATCTTTCTGTTCAAGCGCCATCTAC`
Reply: 1.03 RPM ratio (pull-down/input)

Task item: Note, next up: `GATGATTGTTCTCCCAGCTGATGAATTGGAATATTCGAGTAAACAAATTTTCCTAATCTTTCTGTTCAAGCGCCATCTAC`
Reply: 0.93 RPM ratio (pull-down/input)

Task item: Note, next up: `GATGATTGTTCTCCCAGCTGATGAATTTGATGCGTCGAGTAAACAAATTTTCCTAATCTTTCTGTTCAAGCGCCATCTAC`
Reply: 1.13 RPM ratio (pull-down/input)
